experimental.protocol: Solubility of oxypurinol
Assay type: physicochemical
measurement.setup: in vitro; in the protective formulation; read-out: maximum in vitro solubility / upper limit of solubility
quantity.measured: solubility

Q: If you can, please state the reported solubility value of O=c1nc2[nH][nH]cc-2c(=O)[nH]1 .
A: ~3000 µM
